Assayed target: Protein Mdm4 (Homo sapiens) + E3 ubiquitin-protein ligase Mdm2 (Homo sapiens) (UniProt O15151+Q00987)
Sequence (O15151 whole entry, looked up): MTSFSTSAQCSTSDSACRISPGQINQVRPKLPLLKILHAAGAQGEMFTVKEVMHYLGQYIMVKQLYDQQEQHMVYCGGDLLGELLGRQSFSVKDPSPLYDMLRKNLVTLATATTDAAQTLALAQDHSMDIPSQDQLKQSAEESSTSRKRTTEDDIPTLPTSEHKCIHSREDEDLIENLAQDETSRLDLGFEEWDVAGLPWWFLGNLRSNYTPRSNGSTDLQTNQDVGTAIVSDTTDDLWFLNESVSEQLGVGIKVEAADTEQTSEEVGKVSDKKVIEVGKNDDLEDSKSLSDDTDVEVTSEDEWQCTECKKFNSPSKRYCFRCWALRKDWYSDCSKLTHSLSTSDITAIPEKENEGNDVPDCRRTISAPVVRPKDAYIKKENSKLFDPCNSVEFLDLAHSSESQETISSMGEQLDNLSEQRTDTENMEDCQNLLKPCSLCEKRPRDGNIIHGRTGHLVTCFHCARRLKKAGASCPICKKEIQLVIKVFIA
Sequence (Q00987 whole entry, looked up): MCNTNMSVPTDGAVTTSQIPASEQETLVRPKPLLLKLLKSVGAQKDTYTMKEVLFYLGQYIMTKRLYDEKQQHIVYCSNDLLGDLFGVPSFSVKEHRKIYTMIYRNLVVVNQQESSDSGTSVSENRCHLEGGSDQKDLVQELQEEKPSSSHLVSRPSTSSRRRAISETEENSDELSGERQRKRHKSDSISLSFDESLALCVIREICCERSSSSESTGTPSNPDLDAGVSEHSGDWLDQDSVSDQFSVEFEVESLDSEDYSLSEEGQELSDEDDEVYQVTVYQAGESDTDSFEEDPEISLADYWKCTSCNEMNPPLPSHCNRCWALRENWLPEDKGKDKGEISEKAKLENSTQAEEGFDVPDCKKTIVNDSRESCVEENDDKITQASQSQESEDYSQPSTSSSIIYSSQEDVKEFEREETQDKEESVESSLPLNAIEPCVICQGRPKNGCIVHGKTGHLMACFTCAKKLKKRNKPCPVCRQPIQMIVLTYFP
Assay: inhibitors of human Mdm2-MdmX association, primary screen, cell-based, luminescence, split luciferase, SaOS-2, uHTS (AID 485346)
Condition parameters: SaOS-2 split-luciferase Mdm2/MdmX complementation, at 8 µM, active compounds read high
About 10,000 (3%) of roughly 330,000 compounds were called active. The full list was thinned out, with actives kept by preference.
Observation type: inhibition (%)
Numbers only, in %.

Each of the following entries comes with a recorded value; kindly state inhibition for each.
1. CCc1ccc2nc(N(CCCN(C)C)C(=O)c3ccc4c(c3)OCCO4)sc2c1
2. CC1O[C@H](OC2C(COC3OC(CO)C(O)[C@H](O)C3O)OC(OC3CC[C@]4(C)C(CC[C@@]5(C)[C@@H]4C=C[C@]46OC[C@@]7(CCC(C)(C)C[C@H]74)C(O)C[C@@]56C)C3(C)C)C(O)C2O)C(O)C(O)C1O (some centres undefined)
3. O=C(Nc1cc2ccccc2oc1=O)C1CCCCC1

1: 39.7; 2: -4.59; 3: -82.7
